target: human PDE2A3 enzyme (Homo sapiens); construct: Human PDE2A3 full-length gene was transduced into Sf9; His-tag; made in house; host or cells: Sf9 insect cells; assay: PDE enzyme inhibitory assay (SPA, [3H]cGMP substrate); assay type: biochemical; conditions: compound 1 μM, substrate [3H]cGMP 77 nM, read-out: inhibitory rate (%) (1 μM)
Sequence (O00408 whole entry): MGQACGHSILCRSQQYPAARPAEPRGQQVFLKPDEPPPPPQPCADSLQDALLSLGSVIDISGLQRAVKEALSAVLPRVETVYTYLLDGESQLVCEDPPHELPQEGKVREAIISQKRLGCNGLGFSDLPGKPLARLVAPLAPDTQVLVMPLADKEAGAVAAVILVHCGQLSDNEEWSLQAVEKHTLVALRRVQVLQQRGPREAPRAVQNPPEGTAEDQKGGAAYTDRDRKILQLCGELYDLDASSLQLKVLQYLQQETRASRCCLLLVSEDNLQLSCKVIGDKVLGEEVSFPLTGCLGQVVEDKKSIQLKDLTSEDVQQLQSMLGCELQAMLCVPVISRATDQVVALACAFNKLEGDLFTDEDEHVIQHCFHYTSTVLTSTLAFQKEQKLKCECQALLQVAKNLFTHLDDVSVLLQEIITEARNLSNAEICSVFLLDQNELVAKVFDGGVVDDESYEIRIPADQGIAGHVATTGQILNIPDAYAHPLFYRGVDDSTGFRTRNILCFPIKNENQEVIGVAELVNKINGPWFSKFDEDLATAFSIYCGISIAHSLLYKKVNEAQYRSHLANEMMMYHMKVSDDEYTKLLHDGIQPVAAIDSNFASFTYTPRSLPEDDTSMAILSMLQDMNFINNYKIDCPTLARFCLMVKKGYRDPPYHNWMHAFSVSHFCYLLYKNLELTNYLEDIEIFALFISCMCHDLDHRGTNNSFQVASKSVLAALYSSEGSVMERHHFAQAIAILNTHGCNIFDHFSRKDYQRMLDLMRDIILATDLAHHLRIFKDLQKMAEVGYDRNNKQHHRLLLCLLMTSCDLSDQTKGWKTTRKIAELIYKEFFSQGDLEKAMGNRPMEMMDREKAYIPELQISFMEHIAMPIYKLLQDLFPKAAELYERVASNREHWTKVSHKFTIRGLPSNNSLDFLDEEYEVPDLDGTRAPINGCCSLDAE
OBSERVABLE: inhibition at 1 µM (%)

INSERT INTO measurements (molecule, observable, measure_unit, measured) VALUES
  ('COC[C@@H](NC(=O)c1cc(=O)[nH]c(N2CCCC2)n1)c1ccc(OC(F)(F)F)c(F)c1 [Example 61]', 'inhibition at 1 µM', '%', 98),
  ('Cn1cc(-c2cncc(C(=O)N[C@@H](c3ccc(OC(F)(F)F)c(F)c3)C(C)(C)O)n2)cn1 [Example 158]', 'inhibition at 1 µM', '%', 97),
  ('COC[C@@H](NC(=O)c1cc(=O)[nH]c(-c2ccc(OC)cn2)n1)c1ccc(OC(F)(F)F)c(F)c1 [Example 105]', 'inhibition at 1 µM', '%', 104),
  ('CC(C)(O)[C@@H](NC(=O)c1cc(=O)[nH]c(-c2ccccn2)n1)c1ccc(OC(F)(F)F)c(F)c1 [Example 102]', 'inhibition at 1 µM', '%', 102),
  ('COC[C@@H](NC(=O)c1cc(=O)[nH]c(N(C)C)n1)c1ccc(OC(F)(F)F)c(F)c1 [Example 33]', 'inhibition at 1 µM', '%', 99),
  ('CCN(C)c1nc(C(=O)N[C@H](COC)c2ccc(OC(F)(F)F)c(F)c2)cc(=O)[nH]1 [Example 76]', 'inhibition at 1 µM', '%', 101),
  ('COC[C@@H](NC(=O)c1cc(=O)[nH]c(C(C)(C)C)n1)c1ccc(OC(F)(F)F)c(F)c1 [Example 80]', 'inhibition at 1 µM', '%', 94),
  ('COC[C@@H](NC(=O)c1cc(=O)[nH]c(-c2ncc(OC)cc2Cl)n1)c1ccc(OC(F)(F)F)c(F)c1 [Example 184]', 'inhibition at 1 µM', '%', 95),
  ('COC[C@@H](NC(=O)c1cc(=O)[nH]c(N2CC(OC)C2)n1)c1ccc(OC(F)(F)F)cc1 [Example 55]', 'inhibition at 1 µM', '%', 98),
  ('COCC(NC(=O)c1cc(=O)[nH]c(C2=CCCC2)n1)c1ccc(-n2cccn2)c(F)c1 (stereo not drawn) [Example 129]', 'inhibition at 1 µM', '%', 98),
  ('CC#Cc1nc(C(=O)N[C@H](COC)c2ccc(OC(F)(F)F)c(F)c2)cc(=O)[nH]1 [Example 111]', 'inhibition at 1 µM', '%', 94),
  ('CC(C)(C)c1nc(C(=O)N[C@@H](c2ccc(OC(F)(F)F)c(F)c2)C(C)(C)O)cc(=O)[nH]1 [Example 95]', 'inhibition at 1 µM', '%', 104),
  ('COC[C@@H](NC(=O)c1cc(=O)[nH]c(C2(C)CC2)n1)c1ccc(OC(F)(F)F)c(F)c1 [Example 103]', 'inhibition at 1 µM', '%', 108),
  ('COC[C@@H](NC(=O)c1cc(=O)[nH]c(-c2ccccn2)n1)c1ccc(OC(F)(F)F)c(F)c1 [Example 88]', 'inhibition at 1 µM', '%', 92),
  ('COC[C@@H](NC(=O)c1cc(=O)[nH]c(-c2ncc(OC)cc2OC)n1)c1ccc(OC(F)(F)F)c(F)c1 [Example 152]', 'inhibition at 1 µM', '%', 96);

From: patent US20160264536A1
